Target: T1, CD4 (Homo sapiens, UniProt P01730)
T1 construct: endogenous in cells; host or cells: SUP-T1 cells
Experiment: CD4 competitive binding assay (FITC anti-human CD4 antibody, SUP-T1 cells)
Conditions: transformed from % inhibition at 100 μM; presented as -ln
Peptide text beside a SMILES is read from it.
Metric: PInhibition (Experimental Data)

Form field: reported PInhibition (Experimental Data) of O=c1oc2cccc(O)c2c(O)c1Cc1ccccc1 [Compound 14]
2.966

Form field: reported PInhibition (Experimental Data) of CCC(=O)c1cc2ccc(O)cc2oc1=O [Compound 13]
3.126

Form field: reported PInhibition (Experimental Data) of O=C(/C=C/c1ccccc1)CCc1c(O)c2ccccc2oc1=O [Compound 20]
3.874

Form field: reported PInhibition (Experimental Data) of O=C(O)/C=C/c1c2ccc(=O)c(O)c-2oc2c(O)c(O)ccc12 [Compound 28]
4.566

Form field: reported PInhibition (Experimental Data) of CC(=O)c1c(O)c2ccccc2oc1=O [Compound 7]
2.988

Form field: reported PInhibition (Experimental Data) of CSCCC(NC(=O)C(CC(C)C)NC(=O)CNC(=O)C(NC(=O)C(Cc1ccccc1)NC(=O)C(CCC(N)=O)NC(=O)C(CC(=O)O)NC(=O)C(CO)NC(=O)C(CCCCN)NC(=O)C1CCCN1C(=O)C(NC(=O)C(N)CC(=O)O)C(C)C)C(C)C)C(N)=O (stereo not shown) [Compound 9] (H-DVPKSDQFVGLM-NH2; configuration not given here)
2.835

Form field: reported PInhibition (Experimental Data) of O=C(O)CCC(=O)c1ccc(Oc2ccccc2)cc1 [Compound 32]
3.400

Form field: reported PInhibition (Experimental Data) of CCCCCCCCCCCC(=O)c1c(O)c2ccccc2oc1=O [Compound 17]
3.774

Form field: reported PInhibition (Experimental Data) of Cc1cc(=O)oc2c(O)c(O)ccc12 [Compound 11]
3.084

Form field: reported PInhibition (Experimental Data) of CCC(=O)c1c(O)c2ccccc2oc1=O [Compound 16]
3.391

Values from paper PMC6278378
